Target protein (sequence): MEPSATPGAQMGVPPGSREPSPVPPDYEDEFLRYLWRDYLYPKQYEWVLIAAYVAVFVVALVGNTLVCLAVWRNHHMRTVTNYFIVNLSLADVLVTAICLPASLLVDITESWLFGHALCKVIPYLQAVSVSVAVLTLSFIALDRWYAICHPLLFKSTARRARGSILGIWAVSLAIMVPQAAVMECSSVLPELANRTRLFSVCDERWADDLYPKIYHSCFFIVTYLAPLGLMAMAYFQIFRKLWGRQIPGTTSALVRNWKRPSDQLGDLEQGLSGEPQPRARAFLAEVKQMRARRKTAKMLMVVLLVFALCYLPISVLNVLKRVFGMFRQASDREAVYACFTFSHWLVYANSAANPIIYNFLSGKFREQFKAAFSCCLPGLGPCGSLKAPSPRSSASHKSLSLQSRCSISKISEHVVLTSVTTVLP
Where a name gives a salt, the structure may show the parent alone.
measurement_name: IC50 (nM)
A number alone suffices; assume nM.

{"compound": "COc1ccc(S(=O)(=O)N(c2ccc(Cl)cc2Cc2c(F)cccc2F)[C@H]2CCNC2)cc1OC [Compound 1, hydrochloride]", "numeric_value": 1380}

Proceeding to the next compound to report its IC50.
Query: Can you look up the measured IC50 of COc1ccc(S(=O)(=O)N(c2c(Cc3c(F)cccc3F)cccc2OC)[C@H]2CCNC2)cc1OC (atropisomer, axis not shown) [Compound 7, hydrochloride] for me?
Result: 103
